Parameter pKi, tested on UniProt P25779, listed per item.
Numbers only, as −log10 of the molar value.

The following molecules have reported results that may help.
Molecule	Tgt	Measured Value
CCC(C(=O)COc1c(F)c(F)cc(F)c1F)n1cc([C@@](C)(NCc2ccc3ncccc3c2)C(C)C)nn1 (some centres not stated)	UniProt P25779	5.98
CCCCC(C(=O)COc1c(F)c(F)cc(F)c1F)n1cc([C@@](C)(NCc2ccc3ncccc3c2)C2CCCCC2)nn1 (some centres not stated)	UniProt P25779	5.91
CC(C(=O)COc1c(F)c(F)cc(F)c1F)n1cc([C@@](C)(NCc2ccc3ncccc3c2)C(C)C)nn1 (some centres not stated)	UniProt P25779	5.17

Below is a list of molecules. For each, state its recorded pKi.
1. CCCCC(C(=O)COc1c(F)c(F)cc(F)c1F)n1cc([C@](C)(CC(C)C)NCc2ccc3ncccc3c2)nn1 (some centres not stated)
2. CCCCC(C(=O)COc1c(F)c(F)cc(F)c1F)n1cc([C@@](C)(NCc2ccc3ncccc3c2)C2CCC2)nn1 (some centres not stated)
3. CCCCC(C(=O)COc1c(F)c(F)cc(F)c1F)n1cc([C@@](C)(NCc2ccc3ncccc3c2)C2CCCC2)nn1 (some centres not stated)
4. CCCCC(C(=O)COc1c(F)c(F)cc(F)c1F)n1cc([C@@](C)(NCc2ccc3ncccc3c2)C2CC2)nn1 (some centres not stated)

Response given:
[7.00, 6.89, 6.96, 6.03]

====

Please respond with reported Kinact for every item in the list.
- Tgt: Cruzipain (Trypanosoma cruzi) (UniProt P25779)
- Sequence (P25779 123-467 limits assumed): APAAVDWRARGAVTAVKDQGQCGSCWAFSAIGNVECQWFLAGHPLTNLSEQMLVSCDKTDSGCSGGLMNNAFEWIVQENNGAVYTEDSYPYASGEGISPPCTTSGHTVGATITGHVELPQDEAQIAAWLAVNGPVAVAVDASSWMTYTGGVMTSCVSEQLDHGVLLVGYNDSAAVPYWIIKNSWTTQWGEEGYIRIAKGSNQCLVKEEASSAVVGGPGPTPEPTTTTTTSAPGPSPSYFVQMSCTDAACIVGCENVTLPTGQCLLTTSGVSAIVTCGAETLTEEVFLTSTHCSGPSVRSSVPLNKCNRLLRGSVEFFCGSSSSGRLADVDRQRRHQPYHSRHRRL
- Method Notes: Inhibition of Trypanosoma cruzi cruzain

The following molecules have reported results that may help.
Molecule	Tgt	Kinact
CCC(C(=O)COc1c(F)c(F)cc(F)c1F)n1cc([C@](C)(CC(C)C)NCc2ccc3ncccc3c2)nn1 (some centres undefined)	Cruzipain (Trypanosoma cruzi) (UniProt P25779)	0.048 s⁻¹
CCCCC(C(=O)COc1c(F)c(F)cc(F)c1F)n1cc([C@@](C)(NCc2ccc3ncccc3c2)C2CCCCC2)nn1 (some centres undefined)	Cruzipain (Trypanosoma cruzi) (UniProt P25779)	0.037 s⁻¹
CC(C(=O)COc1c(F)c(F)cc(F)c1F)n1cc([C@@](C)(NCc2ccc3ncccc3c2)C(C)C)nn1 (some centres undefined)	Cruzipain (Trypanosoma cruzi) (UniProt P25779)	0.043 s⁻¹

Please turn your attention to the following entry.
The value of Kinact measured for the molecule CCC(C(=O)COc1c(F)c(F)cc(F)c1F)n1cc([C@@](C)(NCc2ccc3ncccc3c2)C2CCC2)nn1 (mixture of isomers) turned out to be 0.096 s⁻¹

====

- Tgt: Cruzipain (Trypanosoma cruzi)
- Sequence (P25779 whole entry): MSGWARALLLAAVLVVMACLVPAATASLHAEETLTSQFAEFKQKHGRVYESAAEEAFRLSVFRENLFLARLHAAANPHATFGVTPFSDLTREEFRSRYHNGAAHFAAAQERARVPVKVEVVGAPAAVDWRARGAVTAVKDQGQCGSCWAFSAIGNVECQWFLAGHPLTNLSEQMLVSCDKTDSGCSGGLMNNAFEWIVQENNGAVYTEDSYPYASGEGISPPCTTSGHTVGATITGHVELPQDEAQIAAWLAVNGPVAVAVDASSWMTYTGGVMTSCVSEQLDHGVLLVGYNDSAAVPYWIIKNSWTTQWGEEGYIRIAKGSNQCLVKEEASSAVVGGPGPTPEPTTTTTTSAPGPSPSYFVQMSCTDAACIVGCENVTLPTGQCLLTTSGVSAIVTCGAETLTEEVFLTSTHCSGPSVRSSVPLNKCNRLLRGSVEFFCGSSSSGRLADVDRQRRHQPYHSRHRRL
- Method Notes: Ratio of kinact to Ki for Trypanosoma cruzi cruzain
Please respond with reported Ratio for every item in the list.

The following compounds have reported results that may help.
Compound	Ratio
CCCCC(C(=O)COc1c(F)c(F)cc(F)c1F)n1cc([C@@](C)(NCc2ccc3ncccc3c2)C2CCCCC2)nn1 (stereo partly drawn)	58000 M⁻¹ s⁻¹
CCCCC(C(=O)COc1c(F)c(F)cc(F)c1F)n1cc([C@@](C)(NCc2ccc3ncccc3c2)C2CCC2)nn1 (stereo partly drawn)	680000 M⁻¹ s⁻¹
CCC(C(=O)COc1c(F)c(F)cc(F)c1F)n1cc([C@@](C)(NCc2ccc3ncccc3c2)C2CCC2)nn1 (mixture of isomers)	522000 M⁻¹ s⁻¹
CCC(C(=O)COc1c(F)c(F)cc(F)c1F)n1cc([C@@](C)(NCc2ccc3ncccc3c2)C(C)C)nn1 (stereo partly drawn)	124000 M⁻¹ s⁻¹
CCC(C(=O)COc1c(F)c(F)cc(F)c1F)n1cc([C@](C)(CC(C)C)NCc2ccc3ncccc3c2)nn1 (stereo partly drawn)	487000 M⁻¹ s⁻¹

Below is a list of compounds. For each, state its recorded Ratio.
1. CC(C(=O)COc1c(F)c(F)cc(F)c1F)n1cc([C@@](C)(NCc2ccc3ncccc3c2)C(C)C)nn1 (stereo partly drawn)
2. CCCCC(C(=O)COc1c(F)c(F)cc(F)c1F)n1cc([C@@](C)(NCc2ccc3ncccc3c2)C2CC2)nn1 (stereo partly drawn)
3. CCCCC(C(=O)COc1c(F)c(F)cc(F)c1F)n1cc([C@](C)(CC(C)C)NCc2ccc3ncccc3c2)nn1 (stereo partly drawn)

Response given:
1: 12300 M⁻¹ s⁻¹; 2: 179000 M⁻¹ s⁻¹; 3: 657000 M⁻¹ s⁻¹

====

- Tgt: Cruzipain (Trypanosoma cruzi)
- Method Notes: Inhibition of Trypanosoma cruzi cruzain
Measured Attribute: Kinact (s⁻¹)
Give bare numbers, in s⁻¹.

The following compounds have reported results that may help.
Compound	Tgt	Kinact (s⁻¹)
CCCCC(C(=O)COc1c(F)c(F)cc(F)c1F)n1cc([C@@](C)(NCc2ccc3ncccc3c2)C2CCC2)nn1 (some centres undefined)	Cruzipain (Trypanosoma cruzi)	0.047
CCCCC(C(=O)COc1c(F)c(F)cc(F)c1F)n1cc([C@](C)(CC(C)C)NCc2ccc3ncccc3c2)nn1 (some centres undefined)	Cruzipain (Trypanosoma cruzi)	0.036
CCCCC(C(=O)COc1c(F)c(F)cc(F)c1F)n1cc([C@@](C)(NCc2ccc3ncccc3c2)C2CC2)nn1 (some centres undefined)	Cruzipain (Trypanosoma cruzi)	0.089

Please turn your attention to the following entry.
The value of Kinact measured for the compound CCC(C(=O)COc1c(F)c(F)cc(F)c1F)n1cc([C@@](C)(NCc2ccc3ncccc3c2)C(C)C)nn1 (some centres undefined) turned out to be 0.066
